# AC50 per entry
# system.name: UniProt P55789
# Sequence (P55789 whole entry): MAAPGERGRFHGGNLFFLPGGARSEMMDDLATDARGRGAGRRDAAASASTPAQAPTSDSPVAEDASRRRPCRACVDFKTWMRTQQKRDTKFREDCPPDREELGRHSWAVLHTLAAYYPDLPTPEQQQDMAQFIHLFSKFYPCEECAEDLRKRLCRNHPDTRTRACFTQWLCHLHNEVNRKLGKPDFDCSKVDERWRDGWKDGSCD
# assay.summary: inhibitors of human ALR sulfhydryl oxidase, dose response, biochemical, H2O2 detection, luminescence, cherry-pick (AID 493248)
Calls of active or inactive are those of the source.
measurement.name: AC50

                                  structure     system_name            reading
0  CCn1cc(-c2ccccc2)c(C(=O)O)c1-c1ccc(OC)cc1  UniProt P55789    5.6 µM (active)
1   CNc1nc(N)c(C(=O)C23CC4CC(CC(C4)C2)C3)s1  UniProt P55789  0.437 µM (active)
2  Cn1c(-c2ccc(F)cc2)cnc1NCc1cc2c(cc1[N+](=O)[O-])OCO2  UniProt P55789   7.43 µM (active)

----------
# system.name: Corticotropin-releasing factor receptor 2/Corticotropin-releasing factor-binding protein (Homo sapiens, UniProt P24387+Q13324)
# Sequence (Q13324 whole entry): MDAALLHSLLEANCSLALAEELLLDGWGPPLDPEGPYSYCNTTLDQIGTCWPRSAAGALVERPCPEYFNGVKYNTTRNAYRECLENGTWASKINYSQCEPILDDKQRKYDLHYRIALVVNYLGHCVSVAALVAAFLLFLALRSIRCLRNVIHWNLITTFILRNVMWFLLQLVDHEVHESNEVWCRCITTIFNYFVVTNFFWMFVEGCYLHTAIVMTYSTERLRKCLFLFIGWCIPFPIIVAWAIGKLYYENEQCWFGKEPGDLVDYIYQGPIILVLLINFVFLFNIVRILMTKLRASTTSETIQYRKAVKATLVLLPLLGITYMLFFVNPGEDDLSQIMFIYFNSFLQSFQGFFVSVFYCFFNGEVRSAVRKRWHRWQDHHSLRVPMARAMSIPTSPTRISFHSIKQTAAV
# Sequence (P24387 whole entry): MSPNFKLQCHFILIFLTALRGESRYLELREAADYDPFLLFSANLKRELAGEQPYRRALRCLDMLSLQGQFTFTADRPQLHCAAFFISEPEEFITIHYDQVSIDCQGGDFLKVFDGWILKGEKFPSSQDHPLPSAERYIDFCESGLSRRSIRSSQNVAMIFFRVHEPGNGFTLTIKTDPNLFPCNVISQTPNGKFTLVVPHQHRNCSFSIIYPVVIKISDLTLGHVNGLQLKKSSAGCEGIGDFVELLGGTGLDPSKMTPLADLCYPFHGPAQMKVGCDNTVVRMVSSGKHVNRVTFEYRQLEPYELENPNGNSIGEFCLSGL
# assay.summary: Dose Response confirmation of uHTS hits for small molecule antagonists of the CRF-binding protein and CRF-R2 receptor complex.
# Assay type: functional
# assay.context: read-out: IC50_Mean
Calls of active or inactive are those of the source.
Outcomes: y for active, n for inactive

                                  structure  group
0  c1ccc2c(c1)OCCOCCOCCOCCOCCOc1ccccc1OCCOCCOCCO2      y
1  Cn1c(=O)n(C)c2cc(S(=O)(=O)Nc3cc(Cl)ccc3O)ccc21      n
2  Cc1onc(-c2c(F)cccc2Cl)c1C(=O)N1CCN(c2ncc(Br)cn2)CC1      n
3  Cc1ccc(SCc2cc(=O)[nH]c(SCC(=O)Nc3cc(Cl)ccc3Cl)n2)cc1      y

----------
# EC50 per entry
# assay.summary: inhibitors of firefly luciferase expression or activity, dose response, H4 neuroglioma cells, luminescence (AID 1990)
# Type: functional, cell-based
Activity calls are given as the source filed them.
measurement.name: EC50

>>> print(df.to_string())
                                   molecule                reading
0  CCOC(=O)c1sc(NC(=O)c2cccc(S(=O)(=O)N3c4ccccc4CC3C)c2)cc1C (stereo not drawn)       10.1 µM (active)
1  O=C(OCc1ccccc1Cl)c1cc([N+](=O)[O-])ccc1N1CCOCC1       23.3 µM (active)
2     CN(C)CCNC(=O)c1csc(Nc2cccc3ccccc23)n1  > 120 µM (not active)

----------
# AC50 per entry
# system.name: UniProt:P33261
# Sequence (P33261 whole entry): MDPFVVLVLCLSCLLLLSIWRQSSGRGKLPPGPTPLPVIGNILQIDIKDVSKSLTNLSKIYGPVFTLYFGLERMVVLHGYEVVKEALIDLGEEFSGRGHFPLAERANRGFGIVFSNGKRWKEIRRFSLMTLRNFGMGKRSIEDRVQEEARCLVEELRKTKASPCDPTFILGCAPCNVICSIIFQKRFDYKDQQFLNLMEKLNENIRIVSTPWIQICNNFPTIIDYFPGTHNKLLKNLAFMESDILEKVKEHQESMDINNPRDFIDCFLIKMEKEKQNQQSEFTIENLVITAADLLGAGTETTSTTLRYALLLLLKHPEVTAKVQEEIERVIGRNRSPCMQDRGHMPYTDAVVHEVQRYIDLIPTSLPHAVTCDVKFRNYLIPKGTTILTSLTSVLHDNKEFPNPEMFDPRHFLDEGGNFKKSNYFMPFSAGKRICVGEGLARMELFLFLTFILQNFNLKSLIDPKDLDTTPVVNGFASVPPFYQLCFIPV
# assay.summary: Cytochrome panel assay with activity outcomes. Panel member name: p450-cyp2c19 Compounds with AC50 equal or less than 10 uM are considered active
# Format: functional
# assay.context: read-out: AC50
measurement.name: AC50

In [3]: df
Out[3]:
                                    molecule     system_name  measurement_name                 reading
 0         Nc1ccc(N2CCN(C(=O)c3ccco3)CC2)cc1  UniProt:P33261              AC50  8.91 µM (inconclusive)
 1  Nc1cccc2cc(S(=O)(=O)Nc3ccc(C(=O)O)cc3)ccc12  UniProt:P33261              AC50  3.16 µM (inconclusive)
 2  O=C(N/N=C/c1ccncc1)c1cc([N+](=O)[O-])cc([N+](=O)[O-])c1O  UniProt:P33261              AC50  2.51 µM (inconclusive)
 3  Oc1c(CN2CCN(c3ccccc3)CC2)cc(Br)c2cccnc12  UniProt:P33261              AC50  3.98 µM (inconclusive)
 4  Cc1cc(C(=O)OC2CCOC2=O)c2ccccc2n1 (configuration not stated)  UniProt:P33261              AC50  28.2 µM (inconclusive)
 5  O=C(NCCN1CCCC1)C1(S(=O)(=O)c2ccc(Cl)cc2)CC1  UniProt:P33261              AC50  25.1 µM (inconclusive)
 6  CCCOC(=O)c1ccc(NC(=O)c2cn(CC)c3nc(C)ccc3c2=O)cc1  UniProt:P33261              AC50    20 µM (inconclusive)
 7  COc1ccc2nc(O)c(CN(CCO)C(=O)c3cccs3)cc2c1  UniProt:P33261              AC50  31.6 µM (inconclusive)
 8  COC(=O)[C@@]1(Cc2ccc(OC)cc2)[C@@H]2C(=CC(=O)[C@H]2CC(=O)C(=O)N2CCCC2)CN1C(=O)c1ccccc1  UniProt:P33261              AC50  39.8 µM (inconclusive)
 9            Cc1cc(S(=O)(=O)NCCN(C)C)c(C)s1  UniProt:P33261              AC50  31.6 µM (inconclusive)
10  Cc1cc(C)c2cc(C#N)c(NCCOC(=O)c3ccccc3C)nc2c1  UniProt:P33261              AC50  1.78 µM (inconclusive)
11             OCCCCNCc1ccc(OCc2ccccc2Cl)cc1  UniProt:P33261              AC50  25.1 µM (inconclusive)
12      c1ccc(CNc2nc(-c3ccoc3)nc3ccccc23)cc1  UniProt:P33261              AC50    20 µM (inconclusive)
13  CCC/C=C(\CCC)C(NC(=O)OCC(C)C)c1ccc(C(=O)OC)cc1 (configuration not stated)  UniProt:P33261              AC50  25.1 µM (inconclusive)
14  Cc1cc(C)cc(N2C(=O)/C(=C/NC3CCS(=O)(=O)C3)c3ccccc3C2=O)c1 (configuration not stated)  UniProt:P33261              AC50  39.8 µM (inconclusive)
15  O=c1[nH]c2cc(Cl)ccc2c(O)c1-c1cccc(Oc2ccccc2)c1  UniProt:P33261              AC50  31.6 µM (inconclusive)
16  COc1ccc(NC(=O)/C(=C\c2cc(OC)c(OC)cc2[N+](=O)[O-])NC(=O)c2ccccc2)cc1  UniProt:P33261              AC50    20 µM (inconclusive)

----------
# system.name: Replicative DNA helicase DnaB (Mycobacterium tuberculosis, UniProt P9WMR3)
# Sequence (P9WMR3 1-399, added parts left off): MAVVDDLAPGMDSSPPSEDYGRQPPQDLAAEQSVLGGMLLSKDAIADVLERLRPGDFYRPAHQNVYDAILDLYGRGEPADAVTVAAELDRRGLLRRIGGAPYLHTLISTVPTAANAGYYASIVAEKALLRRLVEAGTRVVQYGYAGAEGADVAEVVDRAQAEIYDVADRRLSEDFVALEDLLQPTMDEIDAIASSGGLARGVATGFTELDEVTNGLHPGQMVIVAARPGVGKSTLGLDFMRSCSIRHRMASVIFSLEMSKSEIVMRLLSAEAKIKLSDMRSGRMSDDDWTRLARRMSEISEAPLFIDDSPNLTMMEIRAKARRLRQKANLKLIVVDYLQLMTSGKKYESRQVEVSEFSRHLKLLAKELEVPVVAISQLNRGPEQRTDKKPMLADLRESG
# assay.summary: DnaB intein splicing inhibitors, dose response, biochemical, cell-free fluorescence (AID 449749)
# Format: functional
Calls of active or inactive are those of the source.
Outcomes: Yes = active, No = inactive

                                   molecule                               system_name  group
0       O=C(Nc1cccc(F)c1)N1CCC(c2ccccc2)CC1  Replicative DNA helicase DnaB (Mycobacterium tuberculosis, UniProt P9WMR3)    Yes
1  c1ccc(-c2ccc(C3CCCN3)cc2)cc1 (centres undefined)  Replicative DNA helicase DnaB (Mycobacterium tuberculosis, UniProt P9WMR3)     No
2  CCOC(=O)c1c(NC(=O)CCl)sc(C(=O)N(CC)CC)c1C  Replicative DNA helicase DnaB (Mycobacterium tuberculosis, UniProt P9WMR3)    Yes
3  CCCCCCCCCCOC(=O)Cn1c(COc2ccccc2)[n+](C)c2ccccc21  Replicative DNA helicase DnaB (Mycobacterium tuberculosis, UniProt P9WMR3)    Yes
